system: T-47D breast; assay: NCI tumour cell line growth inhibition, 48 h
Task for the reader: assign each of the following molecules its reported TGI.
Give bare numbers, in µM.

SMILES REPRESENTATION: O=C1c2ccccc2-c2c1c1ccc([N+](=O)[O-])cc1c(=O)n2CCNCCCNCCn1c2c(c3ccc([N+](=O)[O-])cc3c1=O)C(=O)c1ccccc1-2
NUMERIC READOUT: 11.3
//
SMILES REPRESENTATION: Cc1cc(Nc2ccc(N=Nc3ccc(O)c4ncccc34)cc2)nc(C)n1
NUMERIC READOUT: 35.6
//
SMILES REPRESENTATION: COc1ccc(Nc2ccnc(NCCNc3ccnc4cc(Cl)ccc34)n2)cc1
NUMERIC READOUT: 5.72

Below are 7 molecules. Give each one its TGI.
1. NCCNCCCCCCNC(=O)c1cccc2cc3ccccc3nc12
2. Cc1ccc2c[c]1[Hg][CH2]COS2(=O)=O
3. CC(=Nc1c2ccccc2nc2ccccc12)N(C)C
4. NS(=O)(=O)c1ccc(Nc2c3ccccc3nc3c(C(=O)NCCCN(CCO)CCO)cccc23)cc1
5. COc1ccc(Nc2ncccc2/C=C/C(=O)c2cc(OC)c(OC)c(OC)c2)cc1
6. O=C1C=C2CO[C@H]3OC[C@H](O)[C@@H]1[C@@H]23
7. N#CC(C#N)=Cc1c(O)ccc2ccccc12

1: 21.5; 2: 29.7; 3: 54.5; 4: 44.2; 5: 4.03; 6: 67.3; 7: 46.4

* * *

system: ACHN renal; test: NCI tumour cell line growth inhibition, 48 h
TEST READOUT: TGI (µM)
One number for each entry, in µM.

Recorded results for 2 molecules are shown here.
MOLECULE: CC1CCC2(NC1)OC1CC3[C@@H]4CC=C5C=CCC[C@]5(C)C4CC[C@]3(C)C1C2C (some centres not stated)
ASSAYED TARGET: ACHN renal
NUMERIC READOUT: 44.6

MOLECULE: C[C@@H]1COCCN1c1nc(-c2cnc(N)cc2C(F)F)nc(N2[C@H](C)COC[C@@H]2C)n1
ASSAYED TARGET: ACHN renal
NUMERIC READOUT: 11.8

Below are 2 molecules. Give each one its TGI.
1. COc1cc2c(c(OC)c1OC)-c1ccc(NNC(=S)N(Cc3cccc(C[N+](Cc4cccc(CNC56CC7CC(CC(C7)C5)C6)c4)(Cc4cccc(CNC56CC7CC(CC(C7)C5)C6)c4)Cc4cccc(CN(C(=S)NNc5ccc6c(cc5=O)[C@@H](NC(C)=O)CCc5cc(OC)c(OC)c(OC)c5-6)C56CC7CC(CC(C7)C5)C6)c4)c3)C34CC5CC(CC(C5)C3)C4)c(=O)cc1[C@@H](NC(C)=O)CC2 (some centres not stated)
2. C=C1C(=O)O[C@H]2[C@H]1CC/C(CNS(=O)(=O)c1ccc3ccccc3c1)=C\CC[C@@]1(C)O[C@@H]21

[7.99, 1.91]

* * *

test system: NCI-H23 lung; assay: NCI tumour cell line growth inhibition, 48 h
TEST READOUT: GI50

Recorded results for 2 compounds are shown here.
SMILES REPRESENTATION: Cc1ccccc1S(=O)(=O)N1[C@H](c2ccc(Cl)cc2)C(C(=O)N[C@@H](Cc2ccccc2)C(N)=O)=C[C@@H]1C(C)(C)C
TEST READOUT: GI50
RESULT: 8.05 µM

SMILES REPRESENTATION: NC(N)=N/N=C/c1c(-c2cccs2)nc2sccn12
TEST READOUT: GI50
RESULT: 14.3 µM

Pending compound:
Which GI50 value is on record for O=C1c2ccccc2-c2nccc3cc(Cl)nc1c23 ?
1.12 µM

* * *

Task for the reader: assign each of the following molecules its reported TGI.
tested on: NCI-H226 lung; experiment: NCI tumour cell line growth inhibition, 48 h

MOLECULE: Cc1cc2ccccc2n1CC(=O)N1CCCC1
ASSAYED TARGET: NCI-H226 lung
TEST READOUT: TGI
RESULT: > 100 µM

Below are 4 molecules. Give each one its TGI.
1. CC(NC(=O)OCc1ccccc1)NC(=O)C(CC(=O)OC(C)(C)C)NC(=O)OC(C)(C)C (stereo not given)
2. CCOC(=O)c1c2c(n3ccc(NC(=O)OC(C)(C)C)cc13)C(=O)c1ncccc1C2=O
3. O=c1[nH]cnc2c1nnn2C1OC(CO)C(O)C1O (stereo not given)
4. COC(=O)c1ccc(CCc2cc(O)ccc2O)cc1

1. > 100 µM
2. 0.757 µM
3. > 100 µM
4. 38.6 µM

* * *

system: OVCAR-3 ovarian; assay: NCI tumour cell line growth inhibition, 48 h
Task for the reader: assign each of the following compounds its reported TGI.
Answers are plain numbers, in µM.

Recorded results for 2 compounds are shown here.
COMPOUND: O=CN1N=C(c2ccc(Nc3ccnc4cc(Cl)ccc34)cc2)CC1c1ccccc1 (stereo not given)
TEST READOUT: TGI
UOM: µM
NUMERIC READOUT: 7.71

COMPOUND: C=C1C(=O)O[C@H]2C/C(C)=C/CC/C(C)=C/CC[C@@](C)(O)[C@@H](I)C[C@@H]12
TEST READOUT: TGI
UOM: µM
NUMERIC READOUT: 24.9

Pending compound:
Which TGI value is on record for COc1ccc(C2=CC(c3cc(OC)c(OC)c(OC)c3)NC(=O)N2)cc1OC (stereo not given) ?
5.05

* * *

test system: UACC-62 melanoma; test: NCI tumour cell line growth inhibition, 48 h; in the data active means GI50 below about 0.43 µM; inactive means the rest
Outcome (select one): YES = active, NO = inactive

Known results for compounds:
COMPOUND: COc1cc(C(=O)/C=C/c2c(-c3ccc(F)cc3)nc3sc(C)cn23)cc(OC)c1OC
CLASS LABEL: NO

COMPOUND: NC(N)=N/N=C/c1c(-c2cccs2)nc2sccn12
CLASS LABEL: NO

COMPOUND: Cc1[nH]c(C(=O)Nc2ccc(C(=O)N3CCNCC3)cc2OC(C)C)c(Cl)c1Cl
CLASS LABEL: NO

COMPOUND: O=c1[nH]cnc2c1nnn2C1OC(CO)C(O)C1O (stereo unspecified)
CLASS LABEL: NO

Please share the test call associated with Nc1ccc(N=Nc2ccccc2)c(N)n1 .
NO

Please share the test call associated with Nc1c(C(=O)c2cccc(-c3ccc[n+]([O-])c3)c2)cnn1-c1ccc(F)cc1F .
NO

* * *

Task for the reader: assign each of the following compounds its reported GI50.
tested on: MDA-MB-435; test: NCI tumour cell line growth inhibition, 48 h

Recorded results for 2 compounds are shown here.
COMPOUND: N#Cc1cccc(C(=O)c2cnn(-c3ccc(F)cc3)c2N)c1
GI50: > 25 µM
//
COMPOUND: Cc1ccc2c[c]1[Hg][CH2]COS2(=O)=O
GI50: 24.7 µM

Below are 3 compounds. Give each one its GI50.
1. COc1ccc(C2=CC(c3cc(OC)c(OC)c(OC)c3)NC(=O)N2)cc1OC (stereo unspecified)
2. O=c1[nH]cnc2c1nnn2C1OC(CO)C(O)C1O (stereo unspecified)
3. CC(=N\O)/C(C)=N/O.CC(=N\O)/C(C)=N/O.CC(=N\O)/C(C)=N/O.CC(=N\O)/C(C)=N/O.[Cu].[Cu]

1: 3.1 µM; 2: 3.51 µM; 3: 18.5 µM

Which GI50 value is on record for NC(N)=N/N=C/c1c(-c2cccs2)nc2sccn12 ?
13.2 µM

* * *

tested on: SF-268 CNS; test: NCI tumour cell line growth inhibition, 48 h; in the data active means GI50 below about 0.43 µM; inactive means the rest
Outcome (select one): Yes = active, No = inactive

Known results for compounds:
COMPOUND: Fc1ccc(C2CC(c3cccc(Nc4ccncc4)c3)=NN2c2cc(Cl)cc(Cl)c2)cc1 (stereo not drawn)
CLASS LABEL: No
--
COMPOUND: C=C1C(=O)O[C@H]2[C@H]1CC/C(CNS(=O)(=O)c1ccc3ccccc3c1)=C\CC[C@@]1(C)O[C@@H]21
CLASS LABEL: No
--
COMPOUND: CCN(CC)c1ccc(N=C2C=C(C(=O)Nc3ccc(S(C)(=O)=O)cc3)C(=O)c3ccccc32)c(C)c1
CLASS LABEL: No
--
COMPOUND: COC(=O)Nc1nc2ccc(Oc3ccc(NC(=O)Nc4cccc(Br)c4)cc3)cc2[nH]1
CLASS LABEL: No
--
COMPOUND: C[C@@H]1COCCN1c1nc(-c2cnc(N)cc2C(F)F)nc(N2[C@H](C)COC[C@@H]2C)n1
CLASS LABEL: Yes

Please share the test call associated with CSc1ccc(-c2cc(-c3ccc(NC(=O)CCCN4CCCC4)cc3)nc(-c3ccc(NC(=O)CCCN4CCCC4)cc3)c2)cc1 .
No

* * *

tested on: SK-MEL-28 melanoma; test: NCI tumour cell line growth inhibition, 48 h
Task for the reader: assign each of the following compounds its reported TGI.

COMPOUND: CCOC(=O)C1=C(C)C(C(=O)OC)/C(=C/c2cccc3cccnc23)C1=O (stereo unspecified)
ASSAYED TARGET: SK-MEL-28 melanoma
TGI: > 10 µM
//
COMPOUND: CS(=O)(=O)N(CCC#N)c1ccc(/C=N/NC(=O)CC(=O)Nc2cccc(Cl)c2)cc1
ASSAYED TARGET: SK-MEL-28 melanoma
TGI: > 100 µM
//
COMPOUND: O=C(Nc1c(Cl)cc([N+](=O)[O-])cc1Cl)C(=O)C1C(=O)NC(=S)NC1=O
ASSAYED TARGET: SK-MEL-28 melanoma
TGI: > 100 µM
//
COMPOUND: CC(C)COC(=O)N1N=NC2C3OC(CC3=O)C21 (stereo unspecified)
ASSAYED TARGET: SK-MEL-28 melanoma
TGI: > 100 µM
//
COMPOUND: Cc1ccc(C)c(COCCOCn2cc(Br)c(N)nc2=O)c1
ASSAYED TARGET: SK-MEL-28 melanoma
TGI: > 100 µM

Pending compound:
Which TGI value is on record for CCON=C1C(C)(C)C(C)(C)C(C)(C)C1(C)C ?
> 100 µM
